test: method code SF-AS, from PMID: 8295915
logP overview

- compound: "CCN(CC)CCC(=O)c1sc(N)nc1C"
  logP: 1.76
- compound: "Cc1nc(N)sc1C(=O)CCN1CCCCC1"
  logP: 2.13
- compound: "CNc1nc(C)c(C(=O)CCN(C)C)s1"
  logP: 1.58
- compound: "Cc1nc(N)sc1C(=O)CCN1CCOCC1"
  logP: 0.82
- compound: "CCNc1nc(C)c(C(=O)CCN(C)C)s1"
  logP: 2.21
- compound: "CCNc1nc(C)c(C(=O)CCN(CC)CC)s1"
  logP: 2.72
- compound: "CCNc1nc(C)c(C(=O)CCN2CCCCC2)s1"
  logP: 2.66
- compound: "CCNc1nc(C)c(C(=O)CCN2CCOCC2)s1"
  logP: 1.43
- compound: "Cc1nc(N)sc1C(=O)CCN(C)C"
  logP: 1.47
- compound: "Cc1nc(N)sc1C(=O)CCN1CCCC1"
  logP: 1.74
- compound: "CNc1nc(C)c(C(=O)CCN2CCCC2)s1"
  logP: 1.86
- compound: "CNc1nc(C)c(C(=O)CCN2CCOCC2)s1"
  logP: 0.95
- compound: "CNc1nc(C)c(C(=O)CCN2CCCCC2)s1"
  logP: 2.21

Data origin, for the record: the SangsterLogP compilation
